Below are IC50 values measured for VicK of caries bacteria (VicK-31-450) (Streptococcus mutans, UniProt Q8DT64).
// units = µM; emit number, no label

CCC1C(C)=CC2CC(C)C(O)C(CC)C2C1/C(O)=C1/C(=O)NC(C)C1=O (centres unmarked) :: 239

// switching to the query compound
Name the recorded IC50 of CCCC1C(C)=CC2CC(C)C(O)C(CC)C2C1/C(O)=C1/C(=O)NC(C)C1=O (centres unmarked) , assay system VicK of caries bacteria (VicK-31-450) (Streptococcus mutans, UniProt Q8DT64). 62.2

----------
Below is a list of entries, each paired with its recorded pIC50 value.
- system_under_test: PehS of soft-rot bacteria MAFF301393 strain (PehS-209-484) (Pectobacterium carotovorum subsp. carotovorum)
- Sequence (Q9ZIN8 entry or part of it): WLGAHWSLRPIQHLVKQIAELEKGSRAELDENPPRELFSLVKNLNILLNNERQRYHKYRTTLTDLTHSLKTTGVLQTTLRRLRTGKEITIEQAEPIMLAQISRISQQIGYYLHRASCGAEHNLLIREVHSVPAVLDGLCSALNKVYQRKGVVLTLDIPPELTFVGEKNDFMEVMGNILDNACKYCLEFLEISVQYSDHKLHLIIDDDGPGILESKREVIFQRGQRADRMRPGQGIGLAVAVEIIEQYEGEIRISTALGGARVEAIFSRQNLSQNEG
- assay_method_text: PehS histidine kinase activity inhibitory test
The scale used: pIC50 is minus the common logarithm of the concentration in molar units.

CCCC1C(C)=CC2CC(C)C(O)C(CC)C2C1/C(O)=C1/C(=O)NC(C)C1=O (centres unmarked) :: 4.80

// switching to the query molecule
Note pIC50 for the molecule shown: CCC1C(C)=CC2CC(C)C(O)C(CC)C2C1/C(O)=C1/C(=O)NC(C)C1=O (centres unmarked) 4.47

----------
- system_under_test: YycG of Bacillus subtilis 168 strain (YycG-204-611) (Bacillus subtilis)
- Construct: a region containing the 204th amino acid to the 611th amino acid from the N-terminus
- Sequence (Q45614 204-611): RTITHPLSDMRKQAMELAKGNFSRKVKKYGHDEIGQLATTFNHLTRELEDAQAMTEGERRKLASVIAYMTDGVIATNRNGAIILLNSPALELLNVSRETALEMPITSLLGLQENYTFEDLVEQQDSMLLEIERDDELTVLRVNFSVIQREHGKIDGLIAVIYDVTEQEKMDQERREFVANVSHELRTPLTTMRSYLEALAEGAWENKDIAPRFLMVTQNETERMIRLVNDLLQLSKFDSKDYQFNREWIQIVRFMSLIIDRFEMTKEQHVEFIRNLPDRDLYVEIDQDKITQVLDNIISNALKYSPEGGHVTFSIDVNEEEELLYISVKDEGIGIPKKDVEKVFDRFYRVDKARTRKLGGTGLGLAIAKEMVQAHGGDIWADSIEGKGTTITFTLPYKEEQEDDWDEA
- assay_method_text: YycG histidine kinase activity inhibitory test
- test_context: YycG-204-611, [γ-32P]ATP, 30° C.
metric: IC50 (µM)
// units = µM; emit number, no label

CCCC1C(C)=CC2CC(C)C(O)C(CC)C2C1/C(O)=C1/C(=O)NC(C)C1=O (centres unmarked) [Signamycin B, signamycin B] :: 43

// switching to the query molecule
Note IC50 for the molecule shown: CCC1C(C)=CC2CC(C)C(O)C(CC)C2C1/C(O)=C1/C(=O)NC(C)C1=O (centres unmarked) [Signamycin A, signamycin A] 138
